TGI by entry:
Test system: M14 melanoma
Assay: NCI tumour cell line growth inhibition, 48 h
recorded.endpoint: TGI

[
  {
    "compound": "CC(=O)O/C(C)=C\\C(=O)O/N=C(\\N)c1ccc(C)cc1",
    "recorded.endpoint": "TGI",
    "result": "93.1 µM"
  },
  {
    "compound": "CCc1ccc(C2=C(O)C(=O)C(c3ccc(CC)cc3)=C(O)C2=O)cc1",
    "recorded.endpoint": "TGI",
    "result": "4.54 µM"
  },
  {
    "compound": "O=Nc1c2cccnc2n2nnc3ccc(Cl)cc3c12",
    "recorded.endpoint": "TGI",
    "result": "8.36 µM"
  },
  {
    "compound": "CCOC(OC1=C(C#N)CCC1)C(CC)[Se]c1ccccc1 (stereo not drawn)",
    "recorded.endpoint": "TGI",
    "result": "32.3 µM"
  },
  {
    "compound": "COc1ccc(CN=CN/C(C#N)=C(\\N)C#N)cc1OC",
    "recorded.endpoint": "TGI",
    "result": "> 100 µM"
  },
  {
    "compound": "CCOC(=O)/C=C/c1ccc(C(=O)OCC)[nH]1",
    "recorded.endpoint": "TGI",
    "result": "> 100 µM"
  },
  {
    "compound": "COc1ccc([N+](=O)[O-])c2c(NCC(O)CO)ccnc12 (stereo not drawn)",
    "recorded.endpoint": "TGI",
    "result": "> 100 µM"
  },
  {
    "compound": "CN(C)CCOc1ccc(-c2c(Oc3ccc(Cl)cc3)c(=O)oc3ccccc23)cc1",
    "recorded.endpoint": "TGI",
    "result": "3.12 µM"
  },
  {
    "compound": "Cc1nc2ccccc2n1CCc1nc2ccccc2s1",
    "recorded.endpoint": "TGI",
    "result": "> 100 µM"
  },
  {
    "compound": "CCc1cccc(C)c1NC(=O)CC1Sc2ccccc2NC1=O (stereo not drawn)",
    "recorded.endpoint": "TGI",
    "result": "> 100 µM"
  },
  {
    "compound": "O=C(c1cccs1)N(C(=O)N1CCC(c2ccccc2)CC1)c1ccccc1",
    "recorded.endpoint": "TGI",
    "result": "> 100 µM"
  },
  {
    "compound": "O=S1(=O)c2ccccc2N2CCCc3cc(Cl)cc1c32",
    "recorded.endpoint": "TGI",
    "result": "> 100 µM"
  },
  {
    "compound": "CCCCCCCCCCCCC(SCCNC(=O)CCNC(=O)C(O)C(C)(C)COP(=O)(O)OP(=O)(O)OCC1OC(n2cnc3c(N)ncnc32)C(O)C1OP(=O)(O)O)C(=O)NCC(N)=O (stereo not drawn)",
    "recorded.endpoint": "TGI",
    "result": "> 100 µM"
  },
  {
    "compound": "O=C(O)c1nnsc1COCc1ccccc1",
    "recorded.endpoint": "TGI",
    "result": "> 100 µM"
  },
  {
    "compound": "CCCCCCCCOCC1S(=O)(=O)OCCOS1(=O)=O",
    "recorded.endpoint": "TGI",
    "result": "> 100 µM"
  },
  {
    "compound": "O=C(/C=C/c1ccc([N+](=O)[O-])o1)NNC(=O)c1cc2ccccc2cc1O",
    "recorded.endpoint": "TGI",
    "result": "2.29 µM"
  },
  {
    "compound": "Nc1cc(CO)cc(Nc2c3ccccc3nc3occc23)c1",
    "recorded.endpoint": "TGI",
    "result": "93.2 µM"
  },
  {
    "compound": "OC1CN=C2c3ccccc3C(O)(c3ccc(Cl)cc3)N2C1 (stereo not drawn)",
    "recorded.endpoint": "TGI",
    "result": "30.4 µM"
  },
  {
    "compound": "S=C1CC(c2ccc(Cl)cc2)Sc2ccccc2N1 (stereo not drawn)",
    "recorded.endpoint": "TGI",
    "result": "> 100 µM"
  },
  {
    "compound": "O=C(O)C(Cc1ccc(O)c([N+](=O)[O-])c1)N1C(=O)c2ccccc2C1=O (stereo not drawn)",
    "recorded.endpoint": "TGI",
    "result": "> 100 µM"
  },
  {
    "compound": "CN(C)CN1C(=O)S/C(=C2\\C(=O)N(CN(C)C)c3ccccc32)C1=O",
    "recorded.endpoint": "TGI",
    "result": "68.3 µM"
  },
  {
    "compound": "COC(=O)c1c(O)ccc2c1c1c(n2C)C(=O)c2ccccc2C1=O",
    "recorded.endpoint": "TGI",
    "result": "> 100 µM"
  },
  {
    "compound": "O=C(c1ccco1)N(C(=S)N1CCN(c2ccccc2)CC1)c1ccccc1",
    "recorded.endpoint": "TGI",
    "result": "> 100 µM"
  }
]

====

TGI by entry:
Test system: SNB-19 CNS
Test: NCI tumour cell line growth inhibition, 48 h

[
  {
    "compound": "COC(=O)c1c(O)ccc2c1c1c(n2C)C(=O)c2ccccc2C1=O",
    "TGI": "50.9 µM"
  },
  {
    "compound": "C=C1C(=O)O[C@H]2[C@H]1CC/C(COC(=O)c1ccc(C(=O)O)s1)=C\\CC[C@@]1(C)O[C@@H]21",
    "TGI": "11.6 µM"
  },
  {
    "compound": "COC(=O)CC1C2CC3C(C2=O)C13 (configuration not stated)",
    "TGI": "> 100 µM"
  },
  {
    "compound": "O=C(O)c1[nH]c(C(=O)O)c(CC(F)(F)C(F)(F)C(F)(F)F)c1CC(F)(F)C(F)(F)C(F)(F)F",
    "TGI": "> 100 µM"
  },
  {
    "compound": "COc1cccc2c1C1=CC(=O)CCC1C(C)(C)O2 (configuration not stated)",
    "TGI": "> 100 µM"
  },
  {
    "compound": "C=C(Br)CN(C#N)CC(=C)Br",
    "TGI": "> 100 µM"
  },
  {
    "compound": "O=C1NC(N2CCOCC2)=N/C1=C\\c1ccccc1O",
    "TGI": "> 100 µM"
  }
]

====

Tested on: CAKI-1 renal
Assay: NCI tumour cell line growth inhibition, 48 h

[
  {
    "molecule": "CC1=C2N3C[C@@H](n4c(=O)n(C)c(=O)n43)C23CCC1n1c(=O)n(C)c(=O)n13",
    "TGI": "> 100 µM"
  },
  {
    "molecule": "C/C(=N/O)c1cccc(Nc2nc3ccccc3c3[nH]c4ccccc4c23)c1",
    "TGI": "6.89 µM"
  },
  {
    "molecule": "c1cncc(C2c3[nH]c4ccccc4c3CCN2CCN2CCCCC2)c1 (configuration not stated)",
    "TGI": "> 100 µM"
  },
  {
    "molecule": "CN(C)CN1C(=O)S/C(=C2\\C(=O)N(CN(C)C)c3ccccc32)C1=O",
    "TGI": "97.9 µM"
  },
  {
    "molecule": "NNC(=O)c1ccccc1NC(=O)/C(=C/c1ccccc1)NC(=O)c1ccccc1",
    "TGI": "> 100 µM"
  },
  {
    "molecule": "CN(C)Cc1cc(N=Nc2ccc(Cl)c(Cl)c2)ccc1O",
    "TGI": "25.4 µM"
  },
  {
    "molecule": "CC1=Nn2c(nc3sc4c(c3c2=O)CCCC4)SC1",
    "TGI": "> 100 µM"
  },
  {
    "molecule": "Nc1nc(N)c2ncn(CC(CO)CC(c3ccccc3)P(=O)(O)O)c2n1 (configuration not stated)",
    "TGI": "> 100 µM"
  },
  {
    "molecule": "c1c[nH]c(Cc2ncc(Cc3cnc[nH]3)[nH]2)n1",
    "TGI": "> 100 µM"
  },
  {
    "molecule": "Cc1nnc2c3c(-c4ccccc4)c(-c4ccccc4)oc3nc(N(C)C)n12",
    "TGI": "> 100 µM"
  },
  {
    "molecule": "CN(C)c1ccc(/C=N/NC2=N/C(=C\\c3ccco3)C(=O)N2)cc1",
    "TGI": "> 100 µM"
  },
  {
    "molecule": "Cc1c2ncccc2c(C)c2c1[nH]c1ccccc12",
    "TGI": "22 µM"
  },
  {
    "molecule": "O=C1/C(=C\\c2cccs2)Oc2ccccc21",
    "TGI": "> 100 µM"
  },
  {
    "molecule": "CCN(CC)C(=S)SSC1CCCCC1",
    "TGI": "25.2 µM"
  },
  {
    "molecule": "CC1(C)CCOC(=O)C(Cl)CC1Cl (configuration not stated)",
    "TGI": "> 100 µM"
  },
  {
    "molecule": "CC(=O)Oc1ccc2c(c1)CC[C@@H]1C2[C@@H](O[N+](=O)[O-])C[C@@]2(C)C1CC[C@@H]2O (some centres not stated)",
    "TGI": "> 100 µM"
  },
  {
    "molecule": "COc1ccc(N=Cc2ccc(N(CCC#N)CCC#N)cc2)cc1",
    "TGI": "> 100 µM"
  },
  {
    "molecule": "CN(C)c1ccc(/C=C2\\N=C(c3ccccc3)N(c3nc4c(Cl)cc(Cl)cc4s3)C2=O)cc1",
    "TGI": "> 100 µM"
  },
  {
    "molecule": "Cc1ccc2c3c1O[C@H]1c4nc5ccccc5cc4C[C@@]4(O)[C@@H](C2)N(CC2CC2)CC[C@]314",
    "TGI": "32.7 µM"
  },
  {
    "molecule": "Cc1ccc(-c2cc3nc(-c4ccccc4)nc(C(Cl)Cl)n3n2)cc1",
    "TGI": "1.33 µM"
  },
  {
    "molecule": "Cn1cc(NC(=O)c2cc(NC(=O)CCCCCC(=O)Nc3cc(C(=O)Nc4cc(C(=O)NCCC(=N)N)n(C)c4)n(C)c3)cn2C)cc1C(=O)NCCC(=N)N",
    "TGI": "> 100 µM"
  },
  {
    "molecule": "ClCCn1cnc2c(SCc3ccccc3)ncnc21",
    "TGI": "> 100 µM"
  }
]
